Reported values of viability for individual entries
tested on: HEK-293 viability, CellTiter-Glo, 3 days; assay: HEK-293 cell cytotoxicity, late-stage follow-up, cytotoxicity control for GRK2 aptamer-displacement inhibitor project, powder set 1, set 2 (AID 588540); conditions: at 20 µM; hits give low values
The source made the active and inactive calls.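 The calls were made as follows: active = viability below 80%, treated as toxic; inactive = the rest.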

Below, 4 compounds whose answers are already recorded.
>  <compound>
COc1ccc(NC(=O)CCS(=O)(=O)c2ccc(Br)s2)cc1

>  <viability>
86.8% (inactive)

$$$$
>  <compound>
O=C(O)Cc1ccc(-n2cccc2)cc1

>  <viability>
125% (inactive)

$$$$
>  <compound>
COc1ccc(Cl)cc1NC(=O)CCS(=O)(=O)c1ccc(Br)cc1

>  <viability>
106% (inactive)

$$$$
>  <compound>
COc1ccc([N+](=O)[O-])cc1NC(=O)CCS(=O)(=O)c1ccc(Br)cc1

>  <viability>
118% (inactive)

$$$$

Ask | Specify reported viability for the compound shown: NS(=O)(=O)c1ccc(CCNC(=O)CCS(=O)(=O)c2ccc(Br)cc2)cc1
Reply | 124% (inactive)

Ask | Specify reported viability for the compound shown: COc1ccc(CCNC(=O)CCS(=O)(=O)c2ccc(Br)cc2)cc1OC
Reply | 120% (inactive)

Ask | Specify reported viability for the compound shown: CCOc1ccc(NC(=O)CCS(=O)(=O)c2ccc(Br)cc2)cc1
Reply | 108% (inactive)

----------
system: HEK-293 viability, CellTiter-Glo, 3 days; test: HEK-293 cell cytotoxicity, late-stage follow-up, cytotoxicity control for GRK2 aptamer-displacement inhibitor project, powder set 1, set 2 (AID 588540); conditions: at 20 µM; hits give low values
reported.property: viability (%)
Give just the numeric value; % need not be written.

Ask | Specify reported viability for the molecule shown: O=C(CCS(=O)(=O)c1ccc(Br)s1)Nc1ccccc1Br
Reply | 71.3

Ask | Specify reported viability for the molecule shown: Cc1ccccc1NC(=O)CCS(=O)(=O)c1ccc(Br)s1
Reply | 94.2

Ask | Specify reported viability for the molecule shown: O=C(CCS(=O)(=O)c1ccc(Br)cc1)NCc1cccs1
Reply | 131

Ask | Specify reported viability for the molecule shown: COC(=O)c1ccc(NC(=O)CCS(=O)(=O)c2ccc(Br)cc2)cc1
Reply | 126

Ask | Specify reported viability for the molecule shown: Cc1cccc(CCNC(=O)CCS(=O)(=O)c2ccc(Br)cc2)c1
Reply | 129

Ask | Specify reported viability for the molecule shown: Cc1cc2ccccc2n1CCNC(=O)C(C)Oc1ccccc1 (stereo unspecified)
Reply | 68.6

Ask | Specify reported viability for the molecule shown: O=C(CCS(=O)(=O)c1ccc(Br)cc1)Nc1ccc(Br)cc1F
Reply | 116

Ask | Specify reported viability for the molecule shown: Cc1ccc(CCNC(=O)CCS(=O)(=O)c2ccc(Br)cc2)cc1
Reply | 126

Ask | Specify reported viability for the molecule shown: O=C(CN1CCc2ccccc21)NC(=O)NCc1ccccc1
Reply | 56.1

Ask | Specify reported viability for the molecule shown: COC(=O)c1ccccc1NC(=O)CCS(=O)(=O)c1ccc(Br)s1
Reply | 81.6

Ask | Specify reported viability for the molecule shown: CCN(CC)c1ccc(NC(=O)CCS(=O)(=O)c2ccc(Br)cc2)c(C)c1
Reply | 97.3

----------
test system: HEK-293 viability, CellTiter-Glo, 3 days; assay: HEK-293 cell cytotoxicity, late-stage follow-up, cytotoxicity control for GRK2 aptamer-displacement inhibitor project, powder set 1, set 2 (AID 588540); conditions: at 20 µM; hits give low values
Reported values of viability for individual entries
Give just the numeric value; % need not be written.

Below, 4 compounds whose answers are already recorded.
>  <compound>
CC(=O)N1CCN(Cc2nc3cc(Cl)ccc3c(=O)[nH]2)CC1

>  <test.value>
124

$$$$
>  <compound>
CC(CS(=O)(=O)c1ccc2c(c1)NC(=O)CS2)C(=O)NCc1ccccc1Cl (stereo not given)

>  <test.value>
119

$$$$
>  <compound>
C#CCSc1nc2sc3c(c2c(=O)n1C)CCC3

>  <test.value>
92.8

$$$$
>  <compound>
O=C(CSc1nc2ccccc2c(=O)n1-c1ccccc1)NC(=O)CN1CCCC1=O

>  <test.value>
116

$$$$

Consider now this further compound.
Ask | Specify reported viability for the compound shown: CCOc1ccccc1NC(=O)CCS(=O)(=O)c1ccc(Br)cc1
Reply | 79.5

Each recorded value in this set is attributed to PubChem BioAssay AID588540.
